Reference source: the nanobody polyreactivity screen of Harvey et al. (2022)

- experimental details: yeast display, Sf9 membrane polyspecificity reagent, FACS + sequencing; frameworks hold sequencing errors
value type: polyreactivity (PSR sort gate)

QVQLVESGGGLVQAGGSLRLSCAASGIIFVDNVMGWYIQAPGKERELVAAIDYSGGSTYYADSVKGRFTISRDNAKNSVYLQMNSLKPEDTAVYYCAATDPRRRVRYGYWGQGTQVTVSS    low polyreactivity
QVQLVESGGGLVQAGGSLRLSCAASGIIIAWYAMGWYRQAPGKERELVAAITSGGGSTYYADSVKGRFTISRDNAKNTVYLQMNSLKPEDTAVYYCAADYQTIGWGYDYWGQGTQVTVSS    low polyreactivity
QVQLVESGGGLVQAGGSLRLSCAASGSTSPGYAMGWYRLEPGKERELVAAITFRGTRTYYADSVKGRFTISRDNAKKTVYLLMNSLKPEDTAVYYCNVVGYGPNRGRVDYWGQGTQVTVSS    high polyreactivity
QVQLVESGGGLVQAGGSLRLSCAASRFYTMGWYIPAPGKERELVAAISWSGGDTYYADSVKGRYTISRDNAKNTVYLQMNSLKQEDTAVYYCPKKTIGSYVHEPYYYWGQGNQVTVSS    low polyreactivity
QVQLVESGGGLVQAGGSLPLSCAASGSIFKPYAMGWYRQAPGKERELVAVISWRGGSTYYADSVKGRFTISRDNAKNTVYLQMNSLKPEDTAVYYCAARRYRYFDGTVPLDYWGQGTQVTVSS    high polyreactivity

----------
- experimental details: yeast display, Sf9 membrane polyspecificity reagent, FACS + sequencing; frameworks hold sequencing errors
value type: polyreactivity (PSR sort gate)

QVQLVESGGGLVQAGGSLRLSCAASGSIFGYYAMGWYRQAPGKERELVATITWGGGSTYADSVKGRFTISRDNAKNTVYLQMNSLKPEDTAVYYCNAGYRYTSAQVTWEYDYWGQGTQVTVSS    low polyreactivity
QVQLVESGGGLVQAGGSLRLSCAASGITFYLNAMGWYRQAPGKERELVADITVSGGSTYYADSVKGRFTISRDNAKNTVYLQMNSLKREDTAVYYCAADLTISYSQEYYYWGQGTQVTVSS    low polyreactivity

----------
- experimental details: yeast display, Sf9 membrane polyspecificity reagent, FACS + sequencing; frameworks hold sequencing errors
value type: polyreactivity (PSR sort gate)

QVQLVESGGGLVQAGGSLRLTCAASGFTFYLNAMGWYRQAPGKERELVAAITDDGDSTYYADSVKGRFTISRDNAKNTVYLQMNSLKPEDTAVYYCNTVYGPDLDGTEYDYWGQGTQVTVSS    low polyreactivity
QVQLVESGGGLLQAGGSLRLSCAASGFIFYDYAMGWYRQAPGKERELVAAITKPGGSTYYADSEKGRFTISRDNAKNTVYLQMNSLKPEDTAGYYCAADVMYYHKLTYGYDYWGQGTQVTVSS    high polyreactivity
QFQLVESGGGLVQAGGSLRLRCAATGSNFYVYALGWYRQAPGKETELVAAIRRTGSSTYYADSVKGRFTMSRDNAKNTDYLQMNSLKPEDTAVYYCAARYWRARAGSYDYWGQGTQVTVSS    high polyreactivity
QFQLVESGGGLVQAGGSLRLSCAASGRTFRYYAMGGYIQAPGKERELVGAITTGSSTYYADSVKGRFTISRDNAKNTVYLQMNSLKTEDTAVYYCHVFQGTRYGYWGQGTKVTVSS    low polyreactivity
QVQLVESGGGLVQAGGSLRLSCAASGLILPDYAMGWYRQAPGKERELVAAISESAASTYYADSVKGRFTISRDNAKNTVYLQMNSLKPEDTAVYYCAAEVWCYSWYYWYYDGEYYWGQGTQVTVSS    high polyreactivity
QVQLVESGGGLVQAGGSLRLSCAASGSTFPVYAMGWYRQAPGKERELVAAITSGGSTYYADSVKGRFTISRDNAKNTVYLQMNSLKPEDTAVYYCAAEDSSPAYNHWGQGTQVTVSS    low polyreactivity
QVQLVESGGGLVQAGGSLRLSCAASGSIFYNYSMGWYRQAPGKERELVATITRSDGSTYYADSVKGRFTISRDNAKNTVYLQMNSLKPEDTAVYYCNADSLWDRAFGYYYWGQGTQVTVSS    low polyreactivity
QVQLVESGGGLVQAGGSLRLSCAASGYIFKTYDMGWYRQAPGKETELVAAITASGGSTSYADSVKGRFTISRDNAKNTVYLQMNSLKPEDTAVYYCAAVYVRFKAERGVYLYPYDYWGQGTQVTVSS    high polyreactivity
QVQLVESGGGLVQAGSTLRLSCAASGRIFDLYTMGWYRQAPGKERELVAAIRWSDGSTYYADSVKGRFTISRDYAKNTVYLQMNSLKPEDTAVYYCAADTRTSYYNDDYDYWGQGTQVTVSS    low polyreactivity
QVQLVESGGGLVQAGGSLRLSCAASGIIFIFYDMGWYRQAPGKERELVATITSGTNTYADSVKGRFTISRDNAKNTVFLQMNSLKPEDTGVYYCAAGFSPASQLDYWGQGSQVTVSS    low polyreactivity
QVQLVESGGGLVQAGGSLRLSCAASGSIFGAYAMGWYRQAPGKERELVAAITSGGSTNYADSVKGRFTISRDNAKNTVYLQMNSLKPEDTAVYYCAARRRYAKFRYDYWGQGTQVTVSS    high polyreactivity
